Below, each entry is listed alongside its reported viability, T/C.
System: 233499-124-R-J3-PDC spheroids with HUVEC/MSC, viability;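 further: spheroids exposed to agents for seven days before readout; percent viability relative to DMSO vehicle control taken as 100%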
Assay: Anticancer human tumor 233499-124-R-J3-PDC patient-derived colon adenocarcinoma cell line growth inhibition [PI3K]
Details: second compound 0.316 µM; first compound 0.1 µM; active compounds read low
EXPERIMENTAL_READOUT: viability, T/C (%)

{"COMPOUND": "CCN1CCN(Cc2ccc(Nc3ncc(F)c(-c4cc(F)c5nc(C)n(C(C)C)c5c4)n3)nc2)CC1 + Cc1nc(NC(=O)N2CCCC2C(N)=O)sc1-c1ccnc(C(C)(C)C(F)(F)F)c1", "EXPERIMENTAL_READOUT": "viability, T/C", "SCALE_UNIT": "%", "ENDPOINT_RESULT": 47.6}
{"COMPOUND": "Cn1ncnc1[C@H]1c2n[nH]c(=O)c3cc(F)cc(c23)N[C@@H]1c1ccc(F)cc1 + Cc1nc(NC(=O)N2CCCC2C(N)=O)sc1-c1ccnc(C(C)(C)C(F)(F)F)c1", "EXPERIMENTAL_READOUT": "viability, T/C", "SCALE_UNIT": "%", "ENDPOINT_RESULT": 54.7}
{"COMPOUND": "Cn1nccc1Nc1nccc(-c2ccn(C(CO)c3ccc(Cl)c(F)c3)c(=O)c2)n1 (stereo unspecified) + CC(Nc1ncnc2nc[nH]c12)c1cc2cccc(Cl)c2c(=O)n1-c1ccccc1", "EXPERIMENTAL_READOUT": "viability, T/C", "SCALE_UNIT": "%", "ENDPOINT_RESULT": 89.9}
{"COMPOUND": "Cn1ncnc1[C@H]1c2n[nH]c(=O)c3cc(F)cc(c23)N[C@@H]1c1ccc(F)cc1 + COc1c(OCCCN2CCOCC2)ccc2c3n(c(=NC(=O)c4cnc(N)nc4)nc12)CCN3", "EXPERIMENTAL_READOUT": "viability, T/C", "SCALE_UNIT": "%", "ENDPOINT_RESULT": 35}
{"COMPOUND": "CC(C)NCC(C(=O)N1CCN(c2ncnc3c2C(C)CC3O)CC1)c1ccc(Cl)cc1 (stereo unspecified) + COc1c(OCCCN2CCOCC2)ccc2c3n(c(=NC(=O)c4cnc(N)nc4)nc12)CCN3", "EXPERIMENTAL_READOUT": "viability, T/C", "SCALE_UNIT": "%", "ENDPOINT_RESULT": 32}
{"COMPOUND": "CC1(C)CCC(CN2CCN(c3ccc(C(=O)NS(=O)(=O)c4ccc(NCC5CCOCC5)c([N+](=O)[O-])c4)c(Oc4cnc5[nH]ccc5c4)c3)CC2)=C(c2ccc(Cl)cc2)C1 + CC(Nc1ccc2c(c1)OCCn1cc(N3C(=O)OCC3C(F)F)nc1-2)C(N)=O", "EXPERIMENTAL_READOUT": "viability, T/C", "SCALE_UNIT": "%", "ENDPOINT_RESULT": 69.3}

Values from PubChem BioAssay AID1963984
